- SYSTEM: Replicase polyprotein 1ab (Severe acute respiratory syndrome coronavirus 2)
- EXPERIMENT_NOTES: Inhibition of N-terminal 6-His-tagged SARS-CoV-2 PLpro BetaCoV/Wuhan/WIV04/2019 (1524 to 1883 residues) extracted from Escherichia coli BL21 (DE3) cells using Dabcyl-KTSAVLQ/SGFRKME as substrate pretreated for 30 mins followed by substrate addition measured for 1 hr by TR-FRET analysis
MEASURED_PARAMETER: pIC50
Scale: negative log10 of molar concentration, which is what pIC50 denotes.

Look up pIC50: `C[C@H](c1cccc2ccccc12)N1CCC(C(=O)NCc2ccc(S(N)(=O)=O)cc2)CC1`
6.22
